- Test system: HT-1080
- assay-info: Cytotoxicity against human HT1080 cells after 72 hrs by CCK-8 assay
- Format: functional, cell-based
- condition-set: HT-1080, 72 h
pIC50: −log10 of the molar value.
parameter-measured: pIC50

INSERT INTO assay_data (smi, value) VALUES
  ('COc1ccc(C(=O)c2c(C)n(C)c3c(OC)c(OC)c(OC)cc23)cc1O', 6.24),
  ('COc1ccc(C(=O)c2cn(C)c3c(OC)c(OC)c(OC)cc23)cc1O', 7.58),
  ('COc1cc2c(c(OC)c1OC)-c1ccc(OC)c(=O)cc1[C@@H](NC(C)=O)CC2', 7.81),
  ('COc1ccc(Cc2c[nH]c3c(OC)c(OC)c(OC)cc23)cc1O', 6.93),
  ('COc1ccc(Cc2cn(C)c3c(OC)c(OC)c(OC)cc23)cc1O', 7.37);
